# Tested on: A549
# test_method_notes: Cytotoxicity against human A549 cells by MTT assay
# Assay type: cell-based
measured_quantity: CC50

Cc1ccccc1N(C(C)C)S(=O)(=O)c1cc(Cl)ccc1Cl ... > 5 µM

The reported value for CCN(c1ccc(CCO)cc1)S(=O)(=O)c1cc(Cl)ccc1Cl in terms of CC50 is > 25 µM

The reported value for CCN(c1ccc(Cl)cc1C)S(=O)(=O)c1cc(Cl)ccc1Cl in terms of CC50 is > 5 µM

The reported value for CCN(c1ccccc1C#N)S(=O)(=O)c1cc(Cl)ccc1Cl in terms of CC50 is > 5 µM

* * *

// reported CC10 per item
# System: A549
# test_method_notes: Cytotoxicity against human A549 cells by MTT assay
# Assay type: cell-based

Cc1cc(Cl)ccc1N(C(F)F)S(=O)(=O)c1cc(Cl)ccc1Cl ... > 5 µM

The reported value for COCCN(c1ccc(Cl)cc1C)S(=O)(=O)c1cc(Cl)ccc1Cl in terms of CC10 is > 5 µM

The reported value for Cc1ccccc1NS(=O)(=O)c1cc(Cl)ccc1Cl in terms of CC10 is > 5 µM

The reported value for CCN(c1ccc(C)cc1)S(=O)(=O)c1cc(Cl)ccc1Cl in terms of CC10 is > 25 µM

The reported value for Cc1ccccc1N(C)S(=O)(=O)c1cc(Cl)ccc1Cl in terms of CC10 is > 5 µM

The reported value for C=CCN(c1ccccc1C)S(=O)(=O)c1cc(Cl)ccc1Cl in terms of CC10 is > 5 µM

* * *

# System: A549
# test_method_notes: Cytotoxicity against human A549 cells by MTT assay
# Format: cell-based
// reported CC50 per item

Below, 5 molecules whose answers are already recorded.
CCN(c1c(F)cc(Cl)cc1F)S(=O)(=O)c1cc(Cl)ccc1Cl ... > 5 µM
CCN(c1ccccc1C)S(=O)(=O)c1cc(Cl)ccc1Cl ... > 25 µM
Cc1cc(Cl)ccc1N(CC1CC1)S(=O)(=O)c1cc(Cl)ccc1Cl ... > 5 µM
Cc1cc(Cl)ccc1N(CCF)S(=O)(=O)c1cc(Cl)ccc1Cl ... > 5 µM
C#CCN(c1ccccc1C)S(=O)(=O)c1cc(Cl)ccc1Cl ... > 5 µM

Please examine the following record next.
Result for C#CCN(c1ccc(Cl)cc1C)S(=O)(=O)c1cc(Cl)ccc1Cl , tested on A549, CC50: > 5 µM

* * *

# Tested on: A549
# test_method_notes: Cytotoxicity against human A549 cells by MTT assay
# Assay type: cell-based
measured_quantity: CC10

Below, 3 compounds whose answers are already recorded.
CCN(c1ccc(CC(=O)N2CCN(C)CC2)cc1)S(=O)(=O)c1cc(Cl)ccc1Cl ... > 25 µM
CCN(c1ccc(F)cc1F)S(=O)(=O)c1cccc(Cl)c1 ... 10.3 µM
O=S(=O)(c1cc(Cl)ccc1Cl)N1CCc2cc(Cl)ccc21 ... > 5 µM

The reported value for CCN(C(=O)c1cc(Cl)ccc1Cl)c1ccc(Cl)cc1C in terms of CC10 is > 5 µM

* * *

// reported CC10 per item
# System: A549
# test_method_notes: Cytotoxicity against human A549 cells by MTT assay
# Format: cell-based

CCN(c1ccc(F)cc1F)S(=O)(=O)c1cc(F)ccc1F ... > 25 µM
CCN(c1ccc(F)cc1F)S(=O)(=O)c1cccc(Cl)c1Cl ... > 25 µM
Cc1ccccc1N(C(C)C)S(=O)(=O)c1cc(Cl)ccc1Cl ... > 5 µM
C#CCCC1(CCN(c2ccc(Cl)cc2C)S(=O)(=O)c2cc(Cl)ccc2Cl)N=N1 ... > 25 µM
CCN(c1ccccc1)S(=O)(=O)c1cc(Cl)ccc1Cl ... > 5 µM
C=CCN(c1ccc(Cl)cc1C)S(=O)(=O)c1cc(Cl)ccc1Cl ... > 5 µM

The reported value for C#CCN(c1cccc(N=[N+]=[N-])c1)S(=O)(=O)c1cc(Cl)ccc1Cl in terms of CC10 is > 25 µM

The reported value for CCN(c1ccc(F)cc1F)S(=O)(=O)c1ccccc1 in terms of CC10 is > 25 µM
